Target: Protein kinase C alpha type (Homo sapiens)
pIC50: −log10 of the molar value.
metric: pIC50

>>> print(df.to_string())
                               smiles_input  metric  measurement
0  CN(C)CCCNC(=O)c1cc(NC(=O)c2cc(NC(=O)c3cc(NC(=O)Cn4cc(C5=C(c6c[nH]c7ccccc67)C(=O)NC5=O)c5ccccc54)cn3C)cn2C)cn1C   pIC50         6.34
